# measured_on: human full-length recombinant PKC βII (Homo sapiens, UniProt P05771)
# Construct: Active human full-length recombinant PKC βII; purchased Invitrogen GmbH, Darmstadt, Germany
# Sequence (P05771 1-673 isoform P05771-2): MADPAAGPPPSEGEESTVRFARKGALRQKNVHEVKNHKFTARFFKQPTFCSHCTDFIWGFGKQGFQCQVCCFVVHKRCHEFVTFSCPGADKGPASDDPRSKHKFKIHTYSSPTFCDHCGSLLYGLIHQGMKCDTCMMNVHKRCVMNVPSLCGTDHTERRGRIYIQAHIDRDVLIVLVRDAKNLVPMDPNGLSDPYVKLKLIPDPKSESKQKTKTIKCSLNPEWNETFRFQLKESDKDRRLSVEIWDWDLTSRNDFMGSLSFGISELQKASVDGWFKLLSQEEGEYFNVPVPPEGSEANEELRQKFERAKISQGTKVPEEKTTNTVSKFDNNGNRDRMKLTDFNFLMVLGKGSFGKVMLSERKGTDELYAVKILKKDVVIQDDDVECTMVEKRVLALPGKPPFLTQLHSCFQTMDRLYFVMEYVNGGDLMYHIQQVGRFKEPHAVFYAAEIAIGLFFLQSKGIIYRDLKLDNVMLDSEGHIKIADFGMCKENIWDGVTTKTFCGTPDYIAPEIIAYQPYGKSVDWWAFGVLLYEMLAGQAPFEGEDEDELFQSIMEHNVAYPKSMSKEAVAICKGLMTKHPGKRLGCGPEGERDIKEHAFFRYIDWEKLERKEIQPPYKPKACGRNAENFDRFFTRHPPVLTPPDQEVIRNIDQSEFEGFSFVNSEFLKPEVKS
# assay_overview: Determination of PKC βII inhibition (Caliper mobility-shift kinase assay, Fluorescein-RFARKGSLRQKNV peptide substrate)
# Assay type: biochemical
# experimental_parameters: example compounds at a final concentration of 1.14 μM (±0.15 μM)
Would you kindly list inhibition at 1.14 µM for each of these molecules?

Entry Cc1n[nH]c2nc(-c3ccc(O)c(F)c3)cc(C(=O)N3CCNC4CS(=O)(=O)CC43)c12 (stereo not shown) [Example 296] , inhibition at 1.14 µM reported as 32%

Entry Cc1n[nH]c2nc(-c3ccc(O)cc3)cc(C(=O)N3CCCNCC3)c12 [Example 75] , inhibition at 1.14 µM reported as 89%

Entry Cc1n[nH]c2nc(-c3ccc(O)cc3)cc(C(=O)N3CCNC(C4CC4)C3)c12 (stereo not shown) [Example 86] , inhibition at 1.14 µM reported as 96%

Entry Cc1n[nH]c2nc(-c3ccc(O)cc3F)cc(C(=O)NC(C)(C)CCN)c12 [Example 66] , inhibition at 1.14 µM reported as 93%

---

# measured_on: human full-length recombinant PKC βII (Homo sapiens)
# Construct: Active human full-length recombinant PKC βII; purchased Invitrogen GmbH, Darmstadt, Germany
# assay_overview: Determination of PKC βII inhibition (Caliper mobility-shift kinase assay, Fluorescein-RFARKGSLRQKNV peptide substrate)
# Type: biochemical
# experimental_parameters: example compounds at a final concentration of 1.14 μM (±0.15 μM)
reported_property: inhibition at 1.14 µM

Entry Cc1n[nH]c2nc(-c3ccc(O)c(F)c3)cc(C(=O)N3CC4(CCNCC4)c4ccccc43)c12 , inhibition at 1.14 µM reported as 45%

Entry Cc1n[nH]c2nc(-c3ccc(O)cc3)cc(C(=O)N3CC4CCCN4CC3C)c12 (stereo not shown) , inhibition at 1.14 µM reported as 66%

Entry O=C(c1cc(-c2ccc(O)cc2)nc2[nH]nc(C(F)(F)F)c12)N1CC2(CCNCC2)C1 , inhibition at 1.14 µM reported as 55%

Entry Cc1n[nH]c2nc(-c3ccc(O)cc3)cc(C(=O)N3CC4(CCNCC4)C3)c12 , inhibition at 1.14 µM reported as 94%

Entry Cc1n[nH]c2nc(-c3ccc(O)c(F)c3)cc(C(=O)N3CCCC4(CCNC4)C3)c12 (stereo not shown) , inhibition at 1.14 µM reported as 59%

Entry Cc1cc(O)ccc1-c1cc(C(=O)N2CCNCC2C(F)(F)F)c2c(C)n[nH]c2n1 (stereo not shown) , inhibition at 1.14 µM reported as 82%

Entry Cc1n[nH]c2nc(-c3ccc(O)cc3F)cc(C(=O)N3CCC(N)(C(F)(F)F)C3)c12 (stereo not shown) , inhibition at 1.14 µM reported as 42%

Entry Cc1n[nH]c2nc(-c3ccc(O)c(F)c3)cc(C(=O)NC3CC4CCC(C3)N4C)c12 (stereo not shown) , inhibition at 1.14 µM reported as 63%

Entry Cc1n[nH]c2nc(-c3ccc(O)cc3)cc(C(=O)N3CC(N)C3)c12 , inhibition at 1.14 µM reported as 69%

Entry Cc1n[nH]c2nc(-c3ccc(O)cc3)cc(C(=O)N[C@H]3C[C@@H]3N)c12 (racemic) , inhibition at 1.14 µM reported as 53%

Entry CCCC1(N)CCN(C(=O)c2cc(-c3ccc(O)cc3)nc3[nH]nc(C)c23)C1 (stereo not shown) , inhibition at 1.14 µM reported as 70%

Entry Cc1n[nH]c2nc(-c3ccc(O)cc3)cc(C(=O)N3CCNC(C)C3C)c12 (stereo not shown) , inhibition at 1.14 µM reported as 99%

Entry Cc1n[nH]c2nc(-c3ccc(O)c(F)c3)cc(C(=O)N3CCN[C@@H](CC(C)C)C3)c12 , inhibition at 1.14 µM reported as 88%

Entry Cc1n[nH]c2nc(-c3cc(F)c(O)c(F)c3)cc(C(=O)N3CCNC[C@@H]3C)c12 , inhibition at 1.14 µM reported as 69%

Entry COc1ccccc1C(=O)N1CCN(C(=O)c2cc(-c3ccc(O)cc3)nc3[nH]nc(C)c23)CC1 , inhibition at 1.14 µM reported as 37%

Entry COc1cc(-c2cc(C(=O)N3CCNCC3)c3c(C)n[nH]c3n2)ccc1O , inhibition at 1.14 µM reported as 29%

---

# measured_on: human full-length recombinant PKC βII (Homo sapiens, UniProt P05771)
# Construct: Active human full-length recombinant PKC βII; purchased Invitrogen GmbH, Darmstadt, Germany
# assay_overview: Determination of PKC βII inhibition (Caliper mobility-shift kinase assay, Fluorescein-RFARKGSLRQKNV peptide substrate)
# Format: biochemical
# experimental_parameters: example compounds at a final concentration of 1.14 μM (±0.15 μM)
Quick rule for you: inhibition at 1.14 µM at 90% or higher means Criterion met, lower means Criterion not met.

-- ask Entry Cc1cc(O)ccc1-c1cc(C(=O)N2CCNCC2c2cccc(F)c2)c2c(C)n[nH]c2n1 (stereo not shown) : is its inhibition at 1.14 µM no less than 90%?
-- reply Criterion met

-- ask Entry Cc1n[nH]c2nc(-c3ccc(O)cc3)cc(C(=O)N3CCNC[C@@H]3Cc3ccccc3)c12 : is its inhibition at 1.14 µM no less than 90%?
-- reply Criterion not met

-- ask Entry Cc1n[nH]c2nc(-c3ccc(O)cc3F)cc(C(=O)N3C[C@H]4CNC[C@H]4C3)c12 : is its inhibition at 1.14 µM no less than 90%?
-- reply Criterion not met

-- ask Entry Cc1n[nH]c2nc(-c3ccc(O)cc3)cc(C(=O)NC3CCNC3)c12 (stereo not shown) : is its inhibition at 1.14 µM no less than 90%?
-- reply Criterion not met

-- ask Entry CCN1CCCN(C(=O)c2cc(-c3ccc(O)c(F)c3)nc3[nH]nc(C)c23)CC1 : is its inhibition at 1.14 µM no less than 90%?
-- reply Criterion not met

-- ask Entry Cc1n[nH]c2nc(-c3ccc(O)cc3)cc(C(=O)NC3CNC3)c12 : is its inhibition at 1.14 µM no less than 90%?
-- reply Criterion not met

-- ask Entry Cc1n[nH]c2nc(-c3ccc(O)cc3)cc(C(=O)NC(C)(C)C(C)(C)N)c12 : is its inhibition at 1.14 µM no less than 90%?
-- reply Criterion not met

-- ask Entry Cc1cc(O)ccc1-c1cc(C(=O)N2CCNC[C@H]2c2ccccc2)c2c(C)n[nH]c2n1 : is its inhibition at 1.14 µM no less than 90%?
-- reply Criterion met

-- ask Entry Cc1n[nH]c2nc(-c3ccc(O)cc3)cc(C(=O)N3C[C@@H](C)NC[C@H]3C)c12 : is its inhibition at 1.14 µM no less than 90%?
-- reply Criterion met

-- ask Entry Cc1n[nH]c2nc(-c3ccc(O)cc3F)cc(C(=O)N3CCNCC3(C)c3ccccc3)c12 (stereo not shown) : is its inhibition at 1.14 µM no less than 90%?
-- reply Criterion met

-- ask Entry Cc1n[nH]c2nc(-c3ccc(O)cc3F)cc(C(=O)N3CCNCC34CCC4)c12 : is its inhibition at 1.14 µM no less than 90%?
-- reply Criterion met

-- ask Entry CCC1(CC)CNC(C)(C)CN1C(=O)c1cc(-c2ccc(O)cc2F)nc2[nH]nc(C)c12 : is its inhibition at 1.14 µM no less than 90%?
-- reply Criterion met

---

Would you kindly list inhibition at 1.14 µM for each of these compounds?
# measured_on: human full-length recombinant PKC βII (Homo sapiens)
# Construct: Active human full-length recombinant PKC βII; purchased Invitrogen GmbH, Darmstadt, Germany
# assay_overview: Determination of PKC βII inhibition (Caliper mobility-shift kinase assay, Fluorescein-RFARKGSLRQKNV peptide substrate)
# Format: biochemical
# experimental_parameters: example compounds at a final concentration of 1.14 μM (±0.15 μM)
Unit % implied. Number only.

Entry O=C(c1cc(-c2ccc(O)cc2)nc2[nH]nc(C(F)(F)F)c12)N1CC2CNCC2C1 (centres unmarked) , inhibition at 1.14 µM reported as 62

Entry Cc1n[nH]c2nc(-c3ccc(O)cc3)cc(C(=O)N3CCNC[C@@H]3C)c12 , inhibition at 1.14 µM reported as 105

Entry Cc1n[nH]c2nc(-c3ccc(O)cc3)cc(C(=O)N3CCC4(CC3)CNC4)c12 , inhibition at 1.14 µM reported as 90

Entry Cc1n[nH]c2nc(-c3ccc(O)cc3)cc(C(=O)N3CCC(Nc4ccccc4)C3)c12 (centres unmarked) , inhibition at 1.14 µM reported as 24

Entry C[C@H]1CN(C(=O)c2cc(-c3ccc(O)cc3)nc3[nH]nc(C(F)(F)F)c23)CCN1 , inhibition at 1.14 µM reported as 73

Entry Cc1n[nH]c2nc(-c3ccc(O)cc3F)cc(C(=O)N3CCNC(c4ccccc4)C3)c12 (centres unmarked) , inhibition at 1.14 µM reported as 51

Entry Cc1n[nH]c2nc(-c3ccc(O)cc3F)cc(C(=O)N3C[C@H](C)NC[C@@H]3C)c12 , inhibition at 1.14 µM reported as 92

Entry O=C(c1cc(-c2ccc(O)cc2)nc2[nH]nc(C(F)(F)F)c12)N1CCC2CNCC21 (centres unmarked) , inhibition at 1.14 µM reported as 21
